# assay-protocol: CCTE_Mundy_HCI_iCellGluta_NOG_NeuriteCount: CCTE's Neurite Outgrowth Assay in iCellGluta cells for Neurite Count, Mundy Lab (AID 2284342);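 also: chemical exposure about 48 hours starting 2 hours after plating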
Records with an inconclusive call do not appear. Active and inactive are the calls of the source. The calls were made as follows: active = hit-call score of the fitted dose curve at least 0.9, where 1 is the maximum; inconclusive = response in the unintended direction; inactive = score below 0.9.
Parameter call: string, one of active, inactive

Example entries and their recorded answers appear below.
[[record]]
mol_smiles = "O=S(=O)(O)C(F)(F)C(F)(F)C(F)(F)C(F)(F)F"
group = "inactive"

[[record]]
mol_smiles = "O=S(=O)(O)C(F)(F)C(F)(F)C(F)(F)C(F)(F)C(F)(F)C(F)(F)F"
group = "inactive"

[[record]]
mol_smiles = "CCOP(=S)(OCC)SCSC(C)(C)C"
group = "inactive"


Data request: In this assay, the call recorded for CO/C=C(/C(=O)OC)c1ccccc1COc1cccc(C(F)(F)F)n1 was what?
Data returned: active

====

# Read-out: Hypoxia-inducible factor 1-alpha (Homo sapiens) (UniProt Q16665)
# Sequence (Q16665 whole entry, looked up): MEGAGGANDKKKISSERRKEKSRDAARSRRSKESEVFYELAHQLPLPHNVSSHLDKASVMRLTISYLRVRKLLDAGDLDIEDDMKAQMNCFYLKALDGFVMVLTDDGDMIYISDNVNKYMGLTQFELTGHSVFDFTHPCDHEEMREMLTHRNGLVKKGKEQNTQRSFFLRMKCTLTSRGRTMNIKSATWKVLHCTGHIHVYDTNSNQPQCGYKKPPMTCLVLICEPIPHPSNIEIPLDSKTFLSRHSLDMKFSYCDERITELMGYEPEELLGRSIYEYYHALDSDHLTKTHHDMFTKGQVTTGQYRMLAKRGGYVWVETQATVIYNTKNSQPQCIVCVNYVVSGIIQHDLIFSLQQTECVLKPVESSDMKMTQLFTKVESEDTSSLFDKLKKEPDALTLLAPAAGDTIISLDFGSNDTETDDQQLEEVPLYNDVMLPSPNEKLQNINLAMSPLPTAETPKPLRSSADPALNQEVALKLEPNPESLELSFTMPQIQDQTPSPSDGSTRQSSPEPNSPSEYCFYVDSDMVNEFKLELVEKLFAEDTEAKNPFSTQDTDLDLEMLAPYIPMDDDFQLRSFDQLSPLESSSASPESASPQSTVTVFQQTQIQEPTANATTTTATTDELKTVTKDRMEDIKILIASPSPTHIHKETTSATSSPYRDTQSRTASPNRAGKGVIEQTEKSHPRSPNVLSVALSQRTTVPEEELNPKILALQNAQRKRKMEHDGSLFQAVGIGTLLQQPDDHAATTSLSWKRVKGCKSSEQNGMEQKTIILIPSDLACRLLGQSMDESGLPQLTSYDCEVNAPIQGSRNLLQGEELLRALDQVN
# assay-protocol: LTEA_HepaRG_HIF1A: Life Technologies and Expression Analysis (LTEA) Assay for Hypoxia-inducible factor 1 (HIF1A) Trancription factor using HepaRG (AID 2283503);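 also: HIF1A transcript by TaqMan qRT-PCR normalized to ACTB GAPDH and POLR2A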
# reported-conditions: mRNA level, 48 h; actives raise or lower the signal
The source made the active and inactive calls. Rule for the calls: active = hit-call score of the fitted dose curve at least 0.9, where 1 is the maximum; inactive = score below 0.9.
Parameter call: string, one of active, inactive

[[record]]
molecule = "Clc1ccc(C(Cl)(Cl)Cl)cc1"
group = "inactive"

[[record]]
molecule = "Clc1ccc(C(c2ccccc2Cl)C(Cl)(Cl)Cl)cc1 (configuration not stated)"
group = "inactive"

[[record]]
molecule = "CCCCCCCCOC(=O)c1ccccc1C(=O)OCCCCCCCC"
group = "inactive"

[[record]]
molecule = "Cc1cc(-c2ccc(N)c(C)c2)ccc1N"
group = "inactive"

[[record]]
molecule = "O=S(=O)(O)C(F)(F)C(F)(F)C(F)(F)C(F)(F)C(F)(F)C(F)(F)F"
group = "active"


Data request: In this assay, the call recorded for COc1ccc(O)c(C(C)(C)C)c1 was what?
Data returned: inactive

Data request: # repeat for CC(C)C(=O)OCC(C)(C)C(OC(=O)C(C)C)C(C)C (configuration not stated)
Data returned: inactive

====

# assay-protocol: ACEA_ER_AUC_viability: ACEA Biosciences xCELLigence Real-Time Cell Analysis on Estrogen Receptor Agonism for Viability (AID 2283782);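 also: continuous compound exposure with impedance area under curve over 80 h; hit means loss of impedance signal meaning reduced cell growth or viability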
Records with an inconclusive call do not appear. Calls of active or inactive are those of the source. How the source made its calls: active means hit-call score of the fitted dose curve at least 0.9, where 1 is the maximum; inconclusive means response in the unintended direction; inactive means score below 0.9.
Parameter call: string, one of Y (active), N (inactive)

Example entries and their recorded answers appear below.
[[record]]
mol_smiles = "c1cc2ccc3cccc4ccc(c1)c2c34"
group = "N"

[[record]]
mol_smiles = "COc1ccc(O)c(C(C)(C)C)c1"
group = "Y"

[[record]]
mol_smiles = "CC1=C2C[C@H]3[C@@H](CC=C4C[C@@H](O)CC[C@@]43C)[C@@H]2CC[C@]12O[C@@H]1C[C@H](C)CN[C@H]1[C@H]2C"
group = "N"

[[record]]
mol_smiles = "Cc1cccc(C)c1N"
group = "N"

[[record]]
mol_smiles = "Sc1ccccc1"
group = "N"


Turning now to a further record.
Data request: In this assay, the call recorded for Clc1ccc(Cl)cc1 was what?
Data returned: N

====

# Read-out: Alpha-fetoprotein (AFP) gene, AFP (gene 174)
# assay-protocol: LTEA_HepaRG_AFP: Life Technologies and Expression Analysis (LTEA) Assay for Alpha-fetoprotein (AFP) gene using HepaRG (AID 2283472)
# reported-conditions: mRNA level, 48 h; actives raise or lower the signal
Calls of active or inactive are those of the source. How the source made its calls: active means hit-call score of the fitted dose curve at least 0.9, where 1 is the maximum; inactive means score below 0.9.
Parameter call: string, one of active, inactive

[[record]]
compound = "CC1=C2C[C@H]3[C@@H](CC=C4C[C@@H](O)CC[C@@]43C)[C@@H]2CC[C@]12O[C@@H]1C[C@H](C)CN[C@H]1[C@H]2C"
group = "inactive"

[[record]]
compound = "CCCCCCOC(=O)c1ccccc1C(=O)OCCCCCC"
group = "inactive"

[[record]]
compound = "ClC1=C(Cl)[C@]2(Cl)[C@@H]3[C@@H](Cl)[C@H]4O[C@H]4[C@@H]3C1(Cl)C2(Cl)Cl"
group = "active"


Data request: In this assay, the call recorded for Cc1ccccc1[N+](=O)[O-] was what?
Data returned: inactive

Data request: # repeat for CC(C)C(=O)OCC(C)(C)C(OC(=O)C(C)C)C(C)C (stereo not given)
Data returned: inactive
